target: HEK293 cells that stably express human DAAO (Homo sapiens (Human), UniProt P14920); assay: Inhibitory activity test at cellular level using DAAO-expressing cells
Readout Name: IC50 (nM)

> print(dat)
                         molecule  unit  test.value
1  O=c1[nH]nc(COc2ccc(Cl)cc2)cc1O    nM         6.3

Cited source for all entries: patent US10202399B2
